- MEASURED ON: GluN1/GluN2C NMDARs (Rattus norvegicus, UniProt P35439+Q00961)
- Sequence (Q00961 20-1237, other chains not shown): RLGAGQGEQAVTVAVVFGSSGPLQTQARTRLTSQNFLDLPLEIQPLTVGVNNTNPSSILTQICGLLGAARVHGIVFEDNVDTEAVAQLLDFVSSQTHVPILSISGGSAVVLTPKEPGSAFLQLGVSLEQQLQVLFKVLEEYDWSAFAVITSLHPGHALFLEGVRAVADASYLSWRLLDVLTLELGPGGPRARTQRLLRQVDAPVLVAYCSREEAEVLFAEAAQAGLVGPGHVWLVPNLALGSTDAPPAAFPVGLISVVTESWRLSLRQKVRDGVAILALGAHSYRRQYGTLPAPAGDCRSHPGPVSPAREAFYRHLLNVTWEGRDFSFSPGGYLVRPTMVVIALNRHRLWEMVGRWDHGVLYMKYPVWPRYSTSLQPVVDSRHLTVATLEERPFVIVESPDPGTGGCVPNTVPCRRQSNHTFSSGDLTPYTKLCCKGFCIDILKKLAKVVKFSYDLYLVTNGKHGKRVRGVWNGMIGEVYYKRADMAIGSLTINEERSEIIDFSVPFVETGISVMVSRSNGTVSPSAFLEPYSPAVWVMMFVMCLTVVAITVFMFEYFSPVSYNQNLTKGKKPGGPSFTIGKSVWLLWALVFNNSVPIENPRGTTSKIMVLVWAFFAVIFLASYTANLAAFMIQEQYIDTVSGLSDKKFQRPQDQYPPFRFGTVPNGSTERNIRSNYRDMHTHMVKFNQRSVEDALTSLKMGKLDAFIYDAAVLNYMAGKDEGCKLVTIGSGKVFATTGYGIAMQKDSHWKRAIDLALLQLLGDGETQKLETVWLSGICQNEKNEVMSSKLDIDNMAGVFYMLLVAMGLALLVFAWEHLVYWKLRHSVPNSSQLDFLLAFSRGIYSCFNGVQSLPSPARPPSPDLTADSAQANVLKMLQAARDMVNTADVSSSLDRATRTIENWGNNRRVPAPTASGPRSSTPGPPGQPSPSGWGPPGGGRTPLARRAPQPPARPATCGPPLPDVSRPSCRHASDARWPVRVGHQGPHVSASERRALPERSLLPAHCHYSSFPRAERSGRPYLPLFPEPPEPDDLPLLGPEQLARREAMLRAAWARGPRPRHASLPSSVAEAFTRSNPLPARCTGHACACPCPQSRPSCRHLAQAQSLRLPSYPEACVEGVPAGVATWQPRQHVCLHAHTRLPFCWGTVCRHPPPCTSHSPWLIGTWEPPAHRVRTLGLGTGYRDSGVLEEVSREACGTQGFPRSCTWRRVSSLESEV
- EXPERIMENT DESCRIPTION: Two-electrode voltage-clamp recordings, Xenopus laevis oocytes expressing GluN1/GluN2C
- Type: cell-based
- REPORTED CONDITIONS: saturating glutamate/glycine 100/30 µM; mean ± SEM; read-out: Maximal Degree of Modulation (% of control)
ATTRIBUTE MEASURED: Emax (%)
The response must be a number in % with no trailing unit.

QUERY: Suppose we examine the compound N=C1NC(=O)C(CC(=O)Nc2sc3c(c2C(=O)OCc2ccccc2)CCCC3)S1 (stereo not shown) [EU1794-25] ; what Emax value has been reported?
RESULT: 180

QUERY: Suppose we examine the compound CC(C)OC(=O)c1c(NC(=O)CC2SC(=N)NC2=O)sc2c1CCCC2 (stereo not shown) [EU1794-5] ; what Emax value has been reported?
RESULT: 140

QUERY: Suppose we examine the compound CCOC(=O)c1c(NC(=O)CC2SC(=N)NC2=O)sc2c1CCC(C)C2 (stereo not shown) [EU1794-2] ; what Emax value has been reported?
RESULT: 14

QUERY: Suppose we examine the compound CC1CCc2c(sc(NC(=O)CC3SC(=N)NC3=O)c2C(=O)OC(C)C)C1 (stereo not shown) [EU1794-19] ; what Emax value has been reported?
RESULT: 32

QUERY: Suppose we examine the compound CC(C)(C)OC(=O)c1c(NC(=O)CC2SC(=N)NC2=O)sc2c1CCCC2 (stereo not shown) [EU1794-27] ; what Emax value has been reported?
RESULT: 230

QUERY: Suppose we examine the compound CCCCOC(=O)c1c(NC(=O)CC2SC(=N)NC2=O)sc2c1CCCC2 (stereo not shown) [EU1794-29] ; what Emax value has been reported?
RESULT: 130

QUERY: Suppose we examine the compound CCOC(=O)c1c(NC(=O)CC2SC(=N)NC2=O)sc2c1CCCC2 (stereo not shown) [EU1794-4] ; what Emax value has been reported?
RESULT: 52
